Target: UniProtKB P43220
Conditions: read-out: Mean EC50; cAMP, HTRF detection, 30 min at 37° C., HEK-293 cells expressing cloned human GLP-1 receptor

>  <Smi>
CC[C@@H](c1ccccc1)N1Cc2cc3c(cc2C[C@H]1C(=O)N[C@@H](Cc1ccc(-c2ccc(C)nc2)cc1)C(=O)O)OC[C@H](c1ccc(OCc2ccc(Cl)c(Cl)c2)cc1)O3

>  <EC50>
127 nM

$$$$
>  <Smi>
Cc1nc(C(=O)N2Cc3cc4c(cc3C[C@H]2C(=O)N[C@@H](Cc2ccc(-c3ccnc(C)c3C)cc2)C(=O)O)OC[C@H](c2ccc(O[C@H]3CC[C@H](C)CC3)cc2)O4)c(C)o1

>  <EC50>
106 nM

$$$$
>  <Smi>
Cc1nc(CN2Cc3cc4c(cc3C[C@H]2C(=O)N[C@@H](Cc2ccc(-c3ccnc(C)c3C)cc2)C(=O)O)OC[C@H](c2ccc(OCc3ccc(Cl)c(Cl)c3)cc2)O4)c(C)o1

>  <EC50>
133 nM

$$$$
>  <Smi>
CC[C@@H](c1ccccc1)N1Cc2cc3c(cc2C[C@H]1C(=O)N[C@@H](Cc1ccc(-c2ccnc(C)c2C)cc1)C(=O)O)OC[C@H](c1ccc(OCCC(C)(C)C)cc1)O3

>  <EC50>
114 nM

$$$$
>  <Smi>
Cc1nc(C(=O)N2Cc3cc4c(cc3C[C@H]2C(=O)N[C@@H](Cc2ccc(-c3ccnc(C)c3C)cc2)C(=O)O)OC[C@@H](c2ccc(OCc3ccc(Cl)c(Cl)c3)cc2)O4)c(C)o1

>  <EC50>
22 nM

$$$$
>  <Smi>
Cc1nccc(Oc2ccc(C[C@H](NC(=O)[C@@H]3Cc4cc5c(cc4CN3C(=O)NC3(C)CCC3)O[C@@H](c3ccc(OCc4ccc(Cl)c(Cl)c4)cc3)CO5)C(=O)O)cc2)c1C

>  <EC50>
109 nM

$$$$
>  <Smi>
Cc1nccc(Oc2ccc(C[C@H](NC(=O)[C@@H]3Cc4cc5c(cc4CN3C(=O)NC3CCC3)O[C@@H](c3ccc(OCc4ccc(Cl)c(Cl)c4)cc3)CO5)C(=O)O)cc2)c1C

>  <EC50>
315 nM

$$$$
>  <Smi>
CCC(CC)Oc1ccc([C@H]2COc3cc4c(cc3O2)CN([C@@H](CC)c2ccccc2)[C@H](C(=O)N[C@@H](Cc2ccc(-c3ccnc(C)c3C)cc2)C(=O)O)C4)cc1

>  <EC50>
22 nM

$$$$
>  <Smi>
CC[C@@H](c1ccccc1)N1Cc2cc3c(cc2C[C@H]1C(=O)N[C@@H](Cc1ccc(-c2cc(C)nn2C)cc1)C(=O)O)OC[C@H](c1ccc(OCc2ccc(Cl)c(Cl)c2)cc1)O3

>  <EC50>
3 nM

$$$$
>  <Smi>
Cc1ccc(NC(=O)N2Cc3cc4c(cc3C[C@H]2C(=O)N[C@@H](Cc2ccc(-c3ccnc(C)c3C)cc2)C(=O)O)OC[C@H](c2ccc(OCc3ccc(Cl)c(Cl)c3)cc2)O4)cc1

>  <EC50>
92 nM

$$$$
>  <Smi>
CC[C@@H](c1ccccc1)N1Cc2cc3c(cc2C[C@H]1C(=O)N[C@@H](Cc1ccc(-c2ccnc(CO)c2)cc1)C(=O)O)OC[C@H](c1ccc(OCc2ccc(Cl)c(Cl)c2)cc1)O3

>  <EC50>
61 nM

$$$$

====

Molecular target: human GLP-1 receptor (Homo sapiens (Human))
Conditions: read-out: Mean EC50; cAMP, HTRF detection, 30 min at 37° C., HEK-293 cells expressing cloned human GLP-1 receptor
Overview of reported EC50 across a group of molecules:
Measured property: EC50 (nM)

>  <Molecule>
CC[C@@H](c1ccccc1)N1Cc2cc3c(cc2C[C@H]1C(=O)N[C@@H](Cc1ccc(Oc2ccnc(C)c2C)cc1)C(=O)O)OC[C@H](c1ccc(OCc2ccc(Cl)c(Cl)c2)cc1)O3 [Example 189]

>  <Units symbol>
nM

>  <Readout value>
31

$$$$
>  <Molecule>
CC[C@@H](c1ccccc1)N1Cc2cc3c(cc2C[C@H]1C(=O)N[C@@H](Cc1ccc(-c2ccnc(C)c2C)cc1)C(=O)O)OC[C@H](c1ccc(OCCC2CCCC2)cc1)O3 [Example 167]

>  <Units symbol>
nM

>  <Readout value>
174

$$$$
>  <Molecule>
Cc1nccc(-c2ccc(C[C@H](NC(=O)[C@@H]3Cc4cc5c(cc4CN3C(=O)N[C@H](C)c3ccccc3)O[C@@H](c3ccc(OCc4cc(Cl)cc(Cl)c4)cc3)CO5)C(=O)O)cc2)c1C [Example 393]

>  <Units symbol>
nM

>  <Readout value>
74

$$$$
>  <Molecule>
Cc1nccc(-c2ccc(C[C@H](NC(=O)[C@@H]3Cc4cc5c(cc4CN3Cc3ccccn3)O[C@@H](c3ccc(OCc4ccc(Cl)c(Cl)c4)cc3)CO5)C(=O)O)cc2)c1C [Example 175]

>  <Units symbol>
nM

>  <Readout value>
5

$$$$
>  <Molecule>
Cc1nc(NC(C)C)ccc1S(=O)(=O)N1Cc2cc3c(cc2C[C@H]1C(=O)N[C@@H](Cc1ccc(-c2ccc(C#N)cc2)cc1)C(=O)O)OC[C@H](c1ccc(OCc2ccc(Cl)c(Cl)c2)cc1)O3 [Example 142]

>  <Units symbol>
nM

>  <Readout value>
263

$$$$
>  <Molecule>
CC[C@@H](c1ccccc1)N1Cc2cc3c(cc2C[C@H]1C(=O)N[C@@H](Cc1ccc(-c2cc(C)ncc2C)cc1)C(=O)O)OC[C@H](c1ccc(OCc2ccc(Cl)c(Cl)c2)cc1)O3 [Example 190]

>  <Units symbol>
nM

>  <Readout value>
11

$$$$
>  <Molecule>
Cc1nc(C)c(C(=O)N2Cc3cc4c(cc3C[C@H]2C(=O)N[C@@H](Cc2ccc(Oc3ccnc(C)c3C)cc2)C(=O)O)OC[C@H](c2ccc(OCc3ccc(Cl)c(Cl)c3)cc2)O4)o1 [Example 265]

>  <Units symbol>
nM

>  <Readout value>
95

$$$$
>  <Molecule>
N#Cc1ccc(-c2ccc(C[C@H](NC(=O)[C@@H]3Cc4cc5c(cc4CN3S(=O)(=O)c3ccc(-c4csc(N)n4)cc3)OC(c3ccc(OCc4ccc(Cl)c(Cl)c4)cc3)CO5)C(=O)O)cc2)cc1 (stereo in doubt) [Example 139]

>  <Units symbol>
nM

>  <Readout value>
85

$$$$

====

Target: human GLP-1 receptor (Homo sapiens (Human), UniProt P43220)
Sequence (P43220 24-463): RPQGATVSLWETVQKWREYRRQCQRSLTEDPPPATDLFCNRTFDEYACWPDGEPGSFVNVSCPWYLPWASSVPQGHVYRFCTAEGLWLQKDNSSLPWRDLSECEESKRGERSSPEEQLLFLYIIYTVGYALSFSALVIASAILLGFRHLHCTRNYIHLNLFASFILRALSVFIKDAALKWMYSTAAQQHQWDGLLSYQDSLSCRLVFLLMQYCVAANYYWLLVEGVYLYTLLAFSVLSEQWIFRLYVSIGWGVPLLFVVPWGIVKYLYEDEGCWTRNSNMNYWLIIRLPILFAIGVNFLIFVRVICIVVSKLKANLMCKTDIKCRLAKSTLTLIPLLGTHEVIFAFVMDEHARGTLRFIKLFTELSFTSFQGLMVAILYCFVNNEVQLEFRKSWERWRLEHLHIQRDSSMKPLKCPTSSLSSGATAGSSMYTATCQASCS
Conditions: read-out: Mean EC50; cAMP, HTRF detection, 30 min at 37° C., HEK-293 cells expressing cloned human GLP-1 receptor

>  <Compound>
Cc1nc(NCCC(C)C)sc1S(=O)(=O)N1Cc2cc3c(cc2C[C@H]1C(=O)N[C@@H](Cc1ccc(-c2ccc(C#N)cc2)cc1)C(=O)O)OCC(c1ccc(OCc2ccc(Cl)c(Cl)c2)cc1)O3 (stereo in doubt)

>  <EC50 [nM]>
356

$$$$
>  <Compound>
Cc1nccc(-c2ccc(C[C@H](NC(=O)[C@@H]3Cc4cc5c(cc4CN3C(=O)[C@H]3CCN(C(=O)OC(C)(C)C)C3)O[C@@H](c3ccc(OCc4ccc(Cl)c(Cl)c4)cc3)CO5)C(=O)O)cc2)c1C

>  <EC50 [nM]>
165

$$$$
>  <Compound>
CC[C@@H](c1ccccc1)N1Cc2cc3c(cc2C[C@H]1C(=O)N[C@@H](Cc1ccc(-c2ccnc(C)c2C)cc1)C(=O)O)OC[C@H](c1ccc(OCc2ccc(Cl)c(Cl)c2)cc1)O3

>  <EC50 [nM]>
5

$$$$
>  <Compound>
Cc1nccc(-c2ccc(C[C@H](NC(=O)[C@@H]3Cc4cc5c(cc4CN3C(=O)NC(C)(C)c3ccccc3)O[C@@H](c3ccc(OCc4ccc(Cl)c(Cl)c4)cc3)CO5)C(=O)O)cc2)c1C

>  <EC50 [nM]>
178

$$$$
>  <Compound>
CC(=O)N1Cc2cc3c(cc2C[C@H]1C(=O)N[C@@H](Cc1ccc(-c2ccnc(C)c2C)cc1)C(=O)O)OC[C@H](c1ccc(OCc2ccc(Cl)c(Cl)c2)cc1)O3

>  <EC50 [nM]>
372

$$$$

====

Biological target: human GLP-1 receptor (Homo sapiens (Human))
Details: read-out: Mean EC50; cAMP, HTRF detection, 30 min at 37° C., HEK-293 cells expressing cloned human GLP-1 receptor
pEC50: −log10 of the molar value.
Below, each entry is listed alongside its reported pEC50.
Measured property: pEC50

>  <Compound>
Cc1nccc(-c2ccc(C[C@H](NC(=O)[C@@H]3Cc4cc5c(cc4CN3C(=O)Nc3cc(F)cc(F)c3)O[C@@H](c3ccc(OCc4ccc(Cl)c(Cl)c4)cc3)CO5)C(=O)O)cc2)c1C

>  <Measured property>
pEC50

>  <Readout value>
6.50

$$$$
>  <Compound>
Cc1nc(C(=O)N2Cc3cc4c(cc3C[C@H]2C(=O)N[C@@H](Cc2ccc(-c3ccnc(C)c3C)cc2)C(=O)O)OC[C@H](c2ccc(OCCc3ccc(Cl)cc3)cc2)O4)c(C)o1

>  <Measured property>
pEC50

>  <Readout value>
7.44

$$$$
>  <Compound>
Cc1nc(C(=O)N2Cc3cc4c(cc3C[C@H]2C(=O)N[C@@H](Cc2ccc(-c3ccc(F)cc3)cc2)C(=O)O)OC[C@H](c2ccc(OCc3ccc(Cl)c(Cl)c3)cc2)O4)c(C)o1

>  <Measured property>
pEC50

>  <Readout value>
6.41

$$$$
>  <Compound>
CC[C@@H](c1ccccc1)N1Cc2cc3c(cc2C[C@H]1C(=O)N[C@@H](Cc1ccc(-c2cc(C)nc(C)c2)cc1)C(=O)O)OC[C@H](c1ccc(OCc2ccc(Cl)c(Cl)c2)cc1)O3

>  <Measured property>
pEC50

>  <Readout value>
7.85

$$$$
>  <Compound>
Cc1nccc(Oc2ccc(C[C@H](NC(=O)[C@@H]3Cc4cc5c(cc4CN3C(=O)NC(C)(C)c3ccccc3)O[C@@H](c3ccc(OCc4ccc(Cl)c(Cl)c4)cc3)CO5)C(=O)O)cc2)c1C

>  <Measured property>
pEC50

>  <Readout value>
6.58

$$$$
>  <Compound>
COCCNc1ccc(S(=O)(=O)N2Cc3cc4c(cc3C[C@H]2C(=O)N[C@@H](Cc2ccc(-c3ccc(C#N)cc3)cc2)C(=O)O)OCC(c2ccc(OCc3ccc(Cl)c(Cl)c3)cc2)O4)c(C)n1 (stereo in doubt)

>  <Measured property>
pEC50

>  <Readout value>
7.30

$$$$
>  <Compound>
CCNc1nc(C)c(S(=O)(=O)N2Cc3cc4c(cc3C[C@H]2C(=O)N[C@@H](Cc2ccc(-c3ccc(C#N)cc3)cc2)C(=O)O)OCC(c2ccc(OCc3ccc(C)c(Cl)c3)cc2)O4)s1 (stereo in doubt)

>  <Measured property>
pEC50

>  <Readout value>
6.56

$$$$
>  <Compound>
CC[C@@H](c1ccccc1)N1Cc2cc3c(cc2C[C@H]1C(=O)N[C@@H](Cc1ccc(-c2ccnc4c2CCC4)cc1)C(=O)O)OC[C@H](c1ccc(OCc2ccc(Cl)c(Cl)c2)cc1)O3

>  <Measured property>
pEC50

>  <Readout value>
7.54

$$$$
>  <Compound>
CCNc1nc(C)c(S(=O)(=O)N2Cc3cc4c(cc3C[C@H]2C(=O)N[C@@H](Cc2ccc(-c3ccc(C#N)cc3)cc2)C(=O)O)OC[C@H](c2ccc(OCc3ccc(Cl)c(Cl)c3)cc2)O4)s1

>  <Measured property>
pEC50

>  <Readout value>
6.60

$$$$
>  <Compound>
Cc1nccc(-c2ccc(C[C@H](NC(=O)[C@@H]3Cc4cc5c(cc4CN3C(=O)N[C@H](C)c3ccccc3)O[C@@H](c3ccc(OCCc4ccc(Cl)cc4)cc3)CO5)C(=O)O)cc2)c1C

>  <Measured property>
pEC50

>  <Readout value>
6.75

$$$$
>  <Compound>
Cc1nccc(-c2ccc(C[C@H](NC(=O)[C@@H]3Cc4cc5c(cc4CN3C(=O)c3ccccc3)O[C@@H](c3ccc(OCCC(C)(C)C)cc3)CO5)C(=O)O)cc2)c1C

>  <Measured property>
pEC50

>  <Readout value>
6.85

$$$$
>  <Compound>
Cc1cccc(NC(=O)N2Cc3cc4c(cc3C[C@H]2C(=O)N[C@@H](Cc2ccc(Oc3ccnc(C)c3C)cc2)C(=O)O)OC[C@H](c2ccc(OCc3ccc(Cl)c(Cl)c3)cc2)O4)c1

>  <Measured property>
pEC50

>  <Readout value>
6.59

$$$$
